The measured values listed here are drawn from BindingDB's records for patent US20240343694.

Here the recorded pIC50 is given for each entry.
testedOn: Epidermal growth factor receptor [1-763,'FHEA',764-1210] (UniProt P00533)
Construct: 1-763,'FHEA',764-1210
assayProcedure: Inhibitory Activity of Compounds Against EGFR Mutant Enzyme
Please note pIC50 is a logarithmic value: minus log10 of concentration in mol/L. Answer with that number alone.

Known results for molecules:
Query string: Reported pIC50, molecule CS(=O)(=O)N1CCc2cccc(Nc3nc(Cl)ncc3C#N)c21 [US20240343694, Example 70] : ____
Result string: 8.40

Query string: pIC50 for CC(=O)N(C)c1c(Nc2nc(Cl)ncc2Cl)ccc(C)c1C [US20240343694, Example 86] ?
Result string: 7.70

Query string: Given the entry C=CC(=O)Nc1cc(N)c(OC)cc1OCCN(C)C [US20240343694, Example 71] , report its measured pIC50.
Result string: 8.30

Okay, next one:
Query string: Which pIC50 value belongs to CC(=O)N(C)c1c(C)cccc1Nc1nc(Cl)ncc1Cl [US20240343694, Example 88] ?
Result string: 8.70
